# targetOrTestSystem: Neurogenic locus notch homolog protein 2 (Homo sapiens) (UniProt Q04721)
# Sequence (Q04721 whole entry, looked up): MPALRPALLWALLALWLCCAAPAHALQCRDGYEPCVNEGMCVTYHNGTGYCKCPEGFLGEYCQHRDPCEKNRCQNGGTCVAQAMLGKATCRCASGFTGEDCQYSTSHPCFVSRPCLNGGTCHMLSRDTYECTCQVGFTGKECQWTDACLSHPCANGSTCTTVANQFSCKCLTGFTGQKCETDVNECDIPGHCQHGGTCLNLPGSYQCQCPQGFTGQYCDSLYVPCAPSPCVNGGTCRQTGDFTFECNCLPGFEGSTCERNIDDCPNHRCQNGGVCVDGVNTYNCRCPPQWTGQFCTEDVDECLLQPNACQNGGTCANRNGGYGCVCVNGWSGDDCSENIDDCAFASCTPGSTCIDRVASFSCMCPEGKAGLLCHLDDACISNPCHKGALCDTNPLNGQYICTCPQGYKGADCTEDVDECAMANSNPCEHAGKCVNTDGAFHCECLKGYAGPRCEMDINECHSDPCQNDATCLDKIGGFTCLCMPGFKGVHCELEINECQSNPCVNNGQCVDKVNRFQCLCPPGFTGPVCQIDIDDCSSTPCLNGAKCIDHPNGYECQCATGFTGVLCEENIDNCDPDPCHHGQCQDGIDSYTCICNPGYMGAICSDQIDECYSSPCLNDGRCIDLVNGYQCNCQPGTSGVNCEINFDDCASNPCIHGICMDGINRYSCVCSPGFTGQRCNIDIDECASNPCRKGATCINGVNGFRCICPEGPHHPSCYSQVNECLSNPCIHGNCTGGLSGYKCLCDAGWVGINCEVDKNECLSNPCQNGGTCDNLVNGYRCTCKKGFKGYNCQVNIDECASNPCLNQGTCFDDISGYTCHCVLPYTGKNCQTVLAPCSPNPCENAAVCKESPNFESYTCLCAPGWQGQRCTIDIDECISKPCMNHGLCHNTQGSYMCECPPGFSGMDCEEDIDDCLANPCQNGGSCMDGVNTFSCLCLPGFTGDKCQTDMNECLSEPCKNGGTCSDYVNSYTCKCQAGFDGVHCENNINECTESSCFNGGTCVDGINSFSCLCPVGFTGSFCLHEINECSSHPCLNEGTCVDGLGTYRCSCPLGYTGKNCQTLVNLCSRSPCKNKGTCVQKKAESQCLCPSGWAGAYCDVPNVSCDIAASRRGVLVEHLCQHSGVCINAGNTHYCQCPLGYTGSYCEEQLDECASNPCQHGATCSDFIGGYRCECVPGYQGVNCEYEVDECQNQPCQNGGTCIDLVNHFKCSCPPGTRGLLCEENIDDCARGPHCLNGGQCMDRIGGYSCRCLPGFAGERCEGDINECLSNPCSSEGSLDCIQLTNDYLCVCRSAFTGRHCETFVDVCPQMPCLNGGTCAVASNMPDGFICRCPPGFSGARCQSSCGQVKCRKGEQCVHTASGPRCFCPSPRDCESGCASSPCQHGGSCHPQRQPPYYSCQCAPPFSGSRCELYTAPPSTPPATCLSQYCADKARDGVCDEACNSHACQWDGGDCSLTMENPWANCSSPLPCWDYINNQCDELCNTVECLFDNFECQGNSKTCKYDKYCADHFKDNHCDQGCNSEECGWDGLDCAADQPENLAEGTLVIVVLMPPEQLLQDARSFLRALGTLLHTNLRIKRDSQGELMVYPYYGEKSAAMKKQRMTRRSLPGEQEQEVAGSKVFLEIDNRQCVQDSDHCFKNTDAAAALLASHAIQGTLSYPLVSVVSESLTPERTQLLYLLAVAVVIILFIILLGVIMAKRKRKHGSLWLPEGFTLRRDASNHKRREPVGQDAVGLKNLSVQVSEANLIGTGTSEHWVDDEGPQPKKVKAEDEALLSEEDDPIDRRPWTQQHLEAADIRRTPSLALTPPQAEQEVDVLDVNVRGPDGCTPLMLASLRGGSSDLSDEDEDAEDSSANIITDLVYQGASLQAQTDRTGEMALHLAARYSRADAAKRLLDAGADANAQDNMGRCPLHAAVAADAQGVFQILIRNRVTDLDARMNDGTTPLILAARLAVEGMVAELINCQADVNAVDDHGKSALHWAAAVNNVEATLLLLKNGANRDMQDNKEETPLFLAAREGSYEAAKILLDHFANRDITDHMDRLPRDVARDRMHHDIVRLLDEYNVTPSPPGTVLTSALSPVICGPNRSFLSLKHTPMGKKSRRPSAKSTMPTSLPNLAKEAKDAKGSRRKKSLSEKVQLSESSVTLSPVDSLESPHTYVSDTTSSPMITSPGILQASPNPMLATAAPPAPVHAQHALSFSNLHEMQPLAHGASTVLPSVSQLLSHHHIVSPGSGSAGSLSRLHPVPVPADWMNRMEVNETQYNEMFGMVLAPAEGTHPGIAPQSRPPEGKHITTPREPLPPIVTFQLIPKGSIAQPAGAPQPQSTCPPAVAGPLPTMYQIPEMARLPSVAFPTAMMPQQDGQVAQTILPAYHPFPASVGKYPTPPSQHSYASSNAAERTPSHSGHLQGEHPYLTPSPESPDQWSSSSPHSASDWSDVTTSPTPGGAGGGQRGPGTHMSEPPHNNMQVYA
# protocol: Notch2 binders on small-molecule microarrays, primary screen, biochemical, small-molecule microarray, 635 nm fluorescence, stem cell growth factors (AID 1073)
# conditionSummary: Notch2 binding, higher = more signal
Field: composite z-score. Provide a value for each of the compounds that follow.
One number for each entry.

The cases that follow already have their composite z-score on record.
{"compound": "C=CCOC(=O)[C@H]1[C@@H]2C(=O)O[C@@H](c3ccccc3)[C@@H](c3ccccc3)N2[C@@H](c2ccc(OCCOC(=O)[C@@H]3C[C@@H]4C(=O)N5CCC[C@H]5C(=O)N4[C@@H]3c3ccc(O)cc3)cc2)[C@]12C(=O)Nc1ccccc12", "composite z-score": 0.356}
{"compound": "CC(C)N1C(=O)[C@@]2(c3ccc([N+](=O)[O-])cc3)CC(=O)N(CC34CC5CC(CC(C5)C3)C4)[C@@H]2c2ccc(CO)cc21", "composite z-score": -1.16}

Next compound, composite z-score to be filled in.
Fetch value of composite z-score on Neurogenic locus notch homolog protein 2 (Homo sapiens) (UniProt Q04721) for `O=C1C[C@@](C(=O)NC2CC2)(c2ccc([N+](=O)[O-])cc2)[C@@H](c2ccc(CO)cc2)N1CC12CC3CC(CC(C3)C1)C2` . 1.4

Values were extracted from PubChem BioAssay.
